experiment: In vivo biodistribution by SPECT/CT imaging; parameters: species or system C57BL/6 mice; details: female, C57BL/6, mouse, tumor/kidney, iv, 30 MBq, total radioactivity; 72 h p.i.; read-out: T/K ratio (tumor-to-kidney)
Numbered stars: 1 amine (or outer) side, 2 acyl side, 3 side chain; on linkers, the order of the positions; unused ones are H or OH. Bridge positions count the residues as written; N and C are the ends. Peptide text beside a SMILES is read from it. * marks the point of attachment. X1 = O=C(O)CN1CCN(CC(=O)O)CCN(CC(=O)N2CCN(Cc3cc(C[*:1])cc(C[*:2])c3)CC2)CCN(CC(=O)O)CC1; Hexanoyl = CCCCCC(=O)*
value_type: tissue to tissue ratio at 72 h
A bare number is all that is needed in reply.

Query: tissue to tissue ratio at 72 h; subject: CCCCCC(=O)N[C@H]1CSCc2cc(cc(CN3CCN(C(=O)CN4CCN(CC(=O)O)CCN(CC(=O)O)CCN(CC(=O)O)CC4)CC3)c2)CSC[C@@H](C(=O)N[C@@H](CC(=O)O)C(N)=O)NC(=O)[C@H](Cc2ccccc2)NC(=O)[C@H](CCC(N)=O)NC(=O)[C@H]([C@@H](C)O)NC(=O)[C@@H]2CCCN2C(=O)[C@@H]2CCCN2C1=O [^177Lu-FAP-2287, metal not drawn] (Hexanoyl-CPPTQFCD-NH2; linker 1-7 via X1; N-terminus and C-terminus assumed)
Result: 1.5

---

assay: In vivo biodistribution by SPECT/CT imaging; parameters: species or system C57BL/6 mice; conditions: female, C57BL/6, mouse, blood pool surrogate (left ventricle of the heart), iv, 30 MBq, total radioactivity; 48 h p.i.; ROI over left ventricle of the heart; mean ± SD, n = 6; SD; read-out: Blood Pool Surrogate %ID/g
Numbered stars: 1 amine (or outer) side, 2 acyl side, 3 side chain; on linkers, the order of the positions; unused ones are H or OH. Bridge positions count the residues as written; N and C are the ends. Peptide text beside a SMILES is read from it. * marks the point of attachment. X1 = O=C(O)CN1CCN(CC(=O)O)CCN(CC(=O)N2CCN(Cc3cc(C[*:1])cc(C[*:2])c3)CC2)CCN(CC(=O)O)CC1; Hexanoyl = CCCCCC(=O)*
value_type: tissue uptake at 48 h (%ID/g)
# unit: %ID/g | format: bare number

Query: tissue uptake at 48 h; subject: CCCCCC(=O)N[C@H]1CSCc2cc(cc(CN3CCN(C(=O)CN4CCN(CC(=O)O)CCN(CC(=O)O)CCN(CC(=O)O)CC4)CC3)c2)CSC[C@@H](C(=O)N[C@@H](CC(=O)O)C(N)=O)NC(=O)[C@H](Cc2ccccc2)NC(=O)[C@H](CCC(N)=O)NC(=O)[C@H]([C@@H](C)O)NC(=O)[C@@H]2CCCN2C(=O)[C@@H]2CCCN2C1=O [^177Lu-FAP-2287, metal not drawn] (Hexanoyl-CPPTQFCD-NH2; linker 1-7 via X1; N-terminus and C-terminus assumed)
Result: 0.1

---

assay: In vivo biodistribution by SPECT/CT imaging; set-up: species or system C57BL/6 mice; settings: female, C57BL/6, mouse, tumor, total radioactivity; 24 h p.i.; 30 MBq (1 nmol) iv; SPECT/CT; mean ± SD, n = 6; SD; read-out: Tumor %ID/g
Numbered stars: 1 amine (or outer) side, 2 acyl side, 3 side chain; on linkers, the order of the positions; unused ones are H or OH. Bridge positions count the residues as written; N and C are the ends. Peptide text beside a SMILES is read from it. * marks the point of attachment. X1 = O=C(O)CN1CCN(CC(=O)O)CCN(CC(=O)N2CCN(Cc3cc(C[*:1])cc(C[*:2])c3)CC2)CCN(CC(=O)O)CC1; Hexanoyl = CCCCCC(=O)*
value_type: tissue uptake at 24 h (%ID/g)
# unit: %ID/g | format: bare number

Query: tissue uptake at 24 h; subject: CCCCCC(=O)N[C@H]1CSCc2cc(cc(CN3CCN(C(=O)CN4CCN(CC(=O)O)CCN(CC(=O)O)CCN(CC(=O)O)CC4)CC3)c2)CSC[C@@H](C(=O)N[C@@H](CC(=O)O)C(N)=O)NC(=O)[C@H](Cc2ccccc2)NC(=O)[C@H](CCC(N)=O)NC(=O)[C@H]([C@@H](C)O)NC(=O)[C@@H]2CCCN2C(=O)[C@@H]2CCCN2C1=O [^177Lu-FAP-2287, metal not drawn] (Hexanoyl-CPPTQFCD-NH2; linker 1-7 via X1; N-terminus and C-terminus assumed)
Result: 2.9
